# Test system: OVCAR-3
# run_description: NCI tumour cell line growth inhibition, 48 h
Active and inactive are the calls of the source. No stated cut-off is given here; in the data, active = GI50 up to about 1.1 µM and inactive = higher.
measurement_name: GI50

O=C(O)c1c[nH]c2c(Sc3ccccc3)nccc2c1=O	> 100 µM (inactive)
O=C(c1ccc(Cl)c(Cl)c1)N(C(=S)OC12CC3CC(CC(C3)C1)C2)c1ccccc1	39.4 µM (inactive)
O=C(CC(=O)c1cccc([N+](=O)[O-])c1)C(=O)Nc1nc([N+](=O)[O-])cs1	> 100 µM (inactive)
O=c1[nH]c2ccc([N+](=O)[O-])c(Cl)c2c2ccccc12	3.72 µM (inactive)

Task: Returns the measured GI50 for the input compound. Input: O=C1CCCC2COc3ccc(O)c1c32 (centres undefined)
Output: > 100 µM (inactive)

Task: I am curious: what GI50 value has been reported for `O=C1/C(=C/c2ccccc2)CNC/C1=C\c1ccccc1` ?
Output: 1.42 µM (inactive)

Task: Given the entry `Cc1cc(C#N)c(Nc2ccccc2[N+](=O)[O-])s1` , report its measured GI50.
Output: 21 µM (inactive)
